Reference for the values: patent US9029542B2

Listing: inhibition at 100 µg/mL of selected molecules
- Test system: Cucumber
- TEST NAME: whole plant or invertebrate
- Format: in vivo
- CONDITION CONTEXT: Cucumis sativus, read-out: inhibitory activity, Cucumber Root

>  <MOLECULE>
CC(Oc1ccc(F)cc1)C(=O)OC(C)P1(=O)OCC(C)(C)CO1 (centres unmarked)

>  <MEASURED TARGET>
Cucumber

>  <inhibition at 100 µg/mL, %>
30

$$$$
>  <MOLECULE>
CC(OC(=O)COc1cccc(C(F)(F)F)c1)P1(=O)OCC(C)(C)CO1 (centres unmarked)

>  <MEASURED TARGET>
Cucumber

>  <inhibition at 100 µg/mL, %>
98

$$$$
>  <MOLECULE>
CC(Oc1ccc(Cl)cc1)C(=O)OC(C)P1(=O)OCC(C)(C)CO1 (centres unmarked)

>  <MEASURED TARGET>
Cucumber

>  <inhibition at 100 µg/mL, %>
60

$$$$
>  <MOLECULE>
CC(Oc1ccc(F)cc1Cl)C(=O)OC(C)P1(=O)OCC(C)(C)CO1 (centres unmarked)

>  <MEASURED TARGET>
Cucumber

>  <inhibition at 100 µg/mL, %>
80

$$$$
>  <MOLECULE>
Cc1cc(Cl)ccc1OCC(=O)OC(C)P1(=O)OCC(C)(C)CO1 (centres unmarked)

>  <MEASURED TARGET>
Cucumber

>  <inhibition at 100 µg/mL, %>
100

$$$$
>  <MOLECULE>
CC(OC(=O)COc1ccc(F)cc1Cl)P1(=O)OCC(C)(C)CO1 (centres unmarked)

>  <MEASURED TARGET>
Cucumber

>  <inhibition at 100 µg/mL, %>
60

$$$$
>  <MOLECULE>
Cc1cc(OCC(=O)OC(C)P2(=O)OCC(C)(C)CO2)ccc1Cl (centres unmarked)

>  <MEASURED TARGET>
Cucumber

>  <inhibition at 100 µg/mL, %>
60

$$$$
>  <MOLECULE>
CC(Oc1ccc(Cl)cc1Cl)C(=O)OC(C)P1(=O)OCC(C)(C)CO1 (centres unmarked)

>  <MEASURED TARGET>
Cucumber

>  <inhibition at 100 µg/mL, %>
80

$$$$

----------
- Tested on: Radish
- TEST NAME: whole plant or invertebrate
- Type: in vivo
- CONDITION CONTEXT: Raphanus sativus, read-out: inhibitory activity, Radish Root
Listing: inhibition at 100 µg/mL of selected molecules
EXPERIMENTAL READOUT: inhibition at 100 µg/mL

>  <MOLECULE>
CC(Oc1ccc(Cl)cc1Cl)C(=O)OC(C)P1(=O)OCC(C)(C)CO1 (centres unmarked)

>  <MEASURED TARGET>
Radish

>  <EXPERIMENTAL READOUT>
inhibition at 100 µg/mL

>  <REPORTED MEASUREMENT>
100%

$$$$
>  <MOLECULE>
Cc1cc(OCC(=O)OC(C)P2(=O)OCC(C)(C)CO2)ccc1Cl (centres unmarked)

>  <MEASURED TARGET>
Radish

>  <EXPERIMENTAL READOUT>
inhibition at 100 µg/mL

>  <REPORTED MEASUREMENT>
90%

$$$$
>  <MOLECULE>
CC(OC(=O)COc1cccc(C(F)(F)F)c1)P1(=O)OCC(C)(C)CO1 (centres unmarked)

>  <MEASURED TARGET>
Radish

>  <EXPERIMENTAL READOUT>
inhibition at 100 µg/mL

>  <REPORTED MEASUREMENT>
90%

$$$$
>  <MOLECULE>
CC(OC(=O)COc1ccc(F)cc1Cl)P1(=O)OCC(C)(C)CO1 (centres unmarked)

>  <MEASURED TARGET>
Radish

>  <EXPERIMENTAL READOUT>
inhibition at 100 µg/mL

>  <REPORTED MEASUREMENT>
90%

$$$$
>  <MOLECULE>
CC(Oc1ccc(Cl)cc1)C(=O)OC(C)P1(=O)OCC(C)(C)CO1 (centres unmarked)

>  <MEASURED TARGET>
Radish

>  <EXPERIMENTAL READOUT>
inhibition at 100 µg/mL

>  <REPORTED MEASUREMENT>
70%

$$$$
>  <MOLECULE>
CC(Oc1ccc(F)cc1Cl)C(=O)OC(C)P1(=O)OCC(C)(C)CO1 (centres unmarked)

>  <MEASURED TARGET>
Radish

>  <EXPERIMENTAL READOUT>
inhibition at 100 µg/mL

>  <REPORTED MEASUREMENT>
80%

$$$$
>  <MOLECULE>
Cc1cc(Cl)ccc1OCC(=O)OC(C)P1(=O)OCC(C)(C)CO1 (centres unmarked)

>  <MEASURED TARGET>
Radish

>  <EXPERIMENTAL READOUT>
inhibition at 100 µg/mL

>  <REPORTED MEASUREMENT>
100%

$$$$
>  <MOLECULE>
CC(Oc1ccc(F)cc1)C(=O)OC(C)P1(=O)OCC(C)(C)CO1 (centres unmarked)

>  <MEASURED TARGET>
Radish

>  <EXPERIMENTAL READOUT>
inhibition at 100 µg/mL

>  <REPORTED MEASUREMENT>
80%

$$$$

----------
Listing: inhibition at 100 µg/mL of selected compounds
- System: Cucumber
- TEST NAME: whole plant or invertebrate
- Assay type: in vivo
- CONDITION CONTEXT: Cucumis sativus, read-out: inhibitory activity, Cucumber Stem

>  <COMPOUND>
CC(Oc1ccc(Cl)cc1Cl)C(=O)OC(C)P1(=O)OCC(C)(C)CO1 (stereo not drawn)

>  <inhibition at 100 µg/mL (%)>
30

$$$$
>  <COMPOUND>
CC(OC(=O)COc1ccc(F)cc1Cl)P1(=O)OCC(C)(C)CO1 (stereo not drawn)

>  <inhibition at 100 µg/mL (%)>
30

$$$$
>  <COMPOUND>
Cc1cc(OCC(=O)OC(C)P2(=O)OCC(C)(C)CO2)ccc1Cl (stereo not drawn)

>  <inhibition at 100 µg/mL (%)>
90

$$$$
